test system: PF-382; assay: selective drug sensitivity score (sDSS, relative to normal bone marrow) (sDSS (score)); higher = more potent and effective on the cell line relative to normal bone marrow cells; settings: 72 h;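 note: ALL cell lines in 384-well plates, five doses spanning 10,000-fold, each plate scaled between vehicle and 100 µmol/L benzalkonium chloride controls, sDSS an adapted area-under-curve metric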
Observed property: selective drug sensitivity score

Challenge: State the recorded selective drug sensitivity score for this entry: Nc1ccccc1NC(=O)c1ccc(CNC(=O)OCc2cccnc2)cc1 [Entinostat] (top concentration 10000 nM)
Response given: 2.08

Challenge: State the recorded selective drug sensitivity score for this entry: O=c1ncn2nc(Sc3ccc(F)cc3F)ccc2c1-c1c(Cl)cccc1Cl [Neflamapimod] (top concentration 10000 nM)
Response given: 0.5

Challenge: State the recorded selective drug sensitivity score for this entry: CN1C(=O)N[C@H](Cc2c[nH]c3c(Cl)cccc23)C1=O [Necrostatin_2] (top concentration 10000 nM)
Response given: -0.08

Challenge: State the recorded selective drug sensitivity score for this entry: Cc1c(-c2c(-c3ccc(F)o3)sc3ncnc(O[C@H](Cc4ccccc4OCc4ccnn4CC(F)(F)F)C(=O)O)c23)ccc(OCCN2CCN(C)CC2)c1Cl (top concentration 1000 nM)
Response given: -7.74

---

system: KASUMI-2; experiment: selective drug sensitivity score (sDSS, relative to normal bone marrow) (sDSS (score)); higher = more potent and effective on the cell line relative to normal bone marrow cells; conditions: 72 h
Observed property: selective drug sensitivity score
No unit in the answer, please; the number alone is enough.

Challenge: For KASUMI-2, provide selective drug sensitivity score of O=C(CCCCCCNC(=O)c1cnc(N(c2ccccc2)c2ccccc2)nc1)NO [Rocilinostat] (top concentration 10000 nM) please.
Response given: 10.2

Challenge: For KASUMI-2, provide selective drug sensitivity score of O=C1CCC(N2C(=O)c3ccccc3C2=O)C(=O)N1 (stereo not given) [Thalidomide] (top concentration 10000 nM) please.
Response given: -0.14

Challenge: For KASUMI-2, provide selective drug sensitivity score of N.N.[Cl][Pt][Cl] [Cisplatin] (top concentration 100000 nM) please.
Response given: 17.2

Challenge: For KASUMI-2, provide selective drug sensitivity score of O=C(/C=C/c1cccc(S(=O)(=O)Nc2ccccc2)c1)NO [Belinostat] (top concentration 10000 nM) please.
Response given: 17.4

Challenge: For KASUMI-2, provide selective drug sensitivity score of C=CC(=O)N1CC/C(=C\c2ccc(F)c([N+](=O)[O-])c2)C(=O)/C(=C/c2ccc(F)c([N+](=O)[O-])c2)C1 [VLX1570] (top concentration 10000 nM) please.
Response given: -2.62

---

test system: MOLT-14; test: selective drug sensitivity score (sDSS, relative to normal bone marrow) (sDSS (score)); higher = more potent and effective on the cell line relative to normal bone marrow cells; details: 72 h
If the reported selective drug sensitivity score equals or exceeds 0.8, assign label 1. If not, assign label 0.

Challenge: In plain terms: is recorded selective drug sensitivity score at least 0.8 for CCN(CC)CCNC(=O)c1c(C)[nH]c(/C=C2\C(=O)Nc3ccc(F)cc32)c1C [Sunitinib] (top concentration 1000 nM) ?
Response given: label 0

Challenge: In plain terms: is recorded selective drug sensitivity score at least 0.8 for CCc1c(C(=O)C(N)=O)c2c(OCC(=O)O)cccc2n1Cc1ccccc1 [Varespladib] (top concentration 10000 nM) ?
Response given: label 0

Challenge: In plain terms: is recorded selective drug sensitivity score at least 0.8 for Cc1ccc(-c2cc(C(F)(F)F)nn2-c2ccc(S(N)(=O)=O)cc2)cc1 [Celecoxib] (top concentration 10000 nM) ?
Response given: label 0

Challenge: In plain terms: is recorded selective drug sensitivity score at least 0.8 for O=C(O)CCCCC(CCSCc1ccccc1)SCc1ccccc1 (stereo unspecified) [Devimistat (CPI-613)] (top concentration 10000 nM) ?
Response given: label 0

Challenge: In plain terms: is recorded selective drug sensitivity score at least 0.8 for CC[C@@H]1CN(C(=O)NCC(F)(F)F)C[C@@H]1c1cnc2cnc3[nH]ccc3n12 [Upadacitinib] (top concentration 10000 nM) ?
Response given: label 0

Challenge: In plain terms: is recorded selective drug sensitivity score at least 0.8 for COCC[n+]1c2c(n(Cc3cnccn3)c1C)C(=O)c1ccccc1C2=O [Sepantronium_bromide] (top concentration 10000 nM) ?
Response given: label 1
